Reported pIC50 values follow for various molecules
- test_target: jack bean urease (JBU) (Canavalia ensiformis, UniProt P07374)
- Construct: purchased Sigma Aldrich
- Sequence (P07374 whole entry, looked up): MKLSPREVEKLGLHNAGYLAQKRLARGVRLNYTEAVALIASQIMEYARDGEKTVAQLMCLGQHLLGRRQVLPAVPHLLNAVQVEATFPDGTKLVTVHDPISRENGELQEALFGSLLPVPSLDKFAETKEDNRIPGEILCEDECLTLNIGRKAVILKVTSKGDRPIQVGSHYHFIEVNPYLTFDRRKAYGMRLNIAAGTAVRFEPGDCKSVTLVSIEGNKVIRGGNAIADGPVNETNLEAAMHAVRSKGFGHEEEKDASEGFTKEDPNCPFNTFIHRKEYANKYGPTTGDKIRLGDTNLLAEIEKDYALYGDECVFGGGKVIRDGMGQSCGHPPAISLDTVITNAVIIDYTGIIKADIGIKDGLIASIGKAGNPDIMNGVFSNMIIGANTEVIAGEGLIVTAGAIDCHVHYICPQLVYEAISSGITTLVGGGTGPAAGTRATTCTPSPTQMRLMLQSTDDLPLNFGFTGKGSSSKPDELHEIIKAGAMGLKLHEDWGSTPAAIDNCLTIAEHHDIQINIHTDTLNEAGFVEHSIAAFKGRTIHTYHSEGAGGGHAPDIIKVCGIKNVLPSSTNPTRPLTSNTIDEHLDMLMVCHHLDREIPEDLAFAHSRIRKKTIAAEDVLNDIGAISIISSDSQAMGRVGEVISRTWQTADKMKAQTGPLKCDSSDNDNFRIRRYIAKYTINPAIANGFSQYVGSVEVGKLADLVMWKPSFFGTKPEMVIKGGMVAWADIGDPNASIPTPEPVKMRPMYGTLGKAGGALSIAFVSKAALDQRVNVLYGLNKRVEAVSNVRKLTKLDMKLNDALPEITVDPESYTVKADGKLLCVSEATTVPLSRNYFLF
- experimental_details: biochemical
- Format: biochemical
The quantity pIC50 is defined as the negative base-10 logarithm of the molar concentration.

>  <molecule>
C[C@@H]1O[C@@H](O[C@H]2C(=O)c3c(O)cc(O)cc3O[C@@H]2c2ccc(O)c(O)c2)[C@H](O)[C@H](O)[C@H]1O [astilbin]

>  <test_target>
jack bean urease (JBU) (Canavalia ensiformis, UniProt P07374)

>  <pIC50>
2.65

$$$$

From here, focus on the item given below.
Query :: Consider the molecule C[C@@H]1O[C@@H](O[C@H]2C(=O)c3c(O)cc(O)cc3O[C@@H]2c2ccc(O)cc2)[C@H](O)[C@H](O)[C@H]1O [engeletin] . State its measured pIC50.
Result :: 2.18

Hello, the source for this data is paper PMC12331786, in case you need it.
